Some molecules, each annotated with its measured IC50 at 72 h.
Experiment: Cytotoxicity against human MCF-10A assessed as cell viability under normoxia conditions measured after 72 hrs by MTT assay
Format: toxicity, cell-based
Conditions: MCF-10A cells
quantity.name: IC50 at 72 h

smiles.str: NS(=O)(=O)c1ccc2c(c1)C(=O)C(=O)N2Cc1ccc(Cl)cc1
result: 6.9 µM
//
smiles.str: Cc1ccc(CN2C(=O)C(=O)c3cc(S(N)(=O)=O)ccc32)cc1C
result: 6.2 µM
//
smiles.str: COc1ccc(CN2C(=O)C(=O)c3cc(S(N)(=O)=O)ccc32)cc1
result: 4 µM

* * *

Molecular target: UniProt:Q16790
Some compounds, each annotated with its measured Ki.

smiles.str: COc1ccc(CN2C(=O)C(=O)c3cc(S(N)(=O)=O)ccc32)cc1
assay.target: UniProt:Q16790
Ki / nM: 1030

smiles.str: NS(=O)(=O)c1ccc2c(c1)C(=O)C(=O)N2Cc1ccc(Cl)cc1Cl
assay.target: UniProt:Q16790
Ki / nM: 162

smiles.str: NS(=O)(=O)c1ccc2c(c1)C(=O)C(=O)N2Cc1ccncc1
assay.target: UniProt:Q16790
Ki / nM: 1680

smiles.str: NS(=O)(=O)c1ccc2c(c1)C(=O)C(=O)N2CCc1ccccc1
assay.target: UniProt:Q16790
Ki / nM: 1810

smiles.str: NS(=O)(=O)c1ccc2c(c1)C(=O)C(=O)N2Cc1ccc([N+](=O)[O-])cc1
assay.target: UniProt:Q16790
Ki / nM: 2040

smiles.str: NS(=O)(=O)c1ccc2c(c1)C(=O)C(=O)N2Cc1c(F)c(F)c(F)c(F)c1F
assay.target: UniProt:Q16790
Ki / nM: 195

smiles.str: NS(=O)(=O)c1ccc2c(c1)C(=O)C(=O)N2Cc1cccc(C(F)(F)F)c1
assay.target: UniProt:Q16790
Ki / nM: 244

smiles.str: NS(=O)(=O)c1ccc2c(c1)C(=O)C(=O)N2Cc1c(F)cccc1Cl
assay.target: UniProt:Q16790
Ki / nM: 204

smiles.str: NS(=O)(=O)c1ccc2c(c1)C(=O)C(=O)N2Cc1ccc(Cl)cc1
assay.target: UniProt:Q16790
Ki / nM: 260

smiles.str: NS(=O)(=O)c1ccc2c(c1)C(=O)C(=O)N2Cc1ccc(F)cc1Cl
assay.target: UniProt:Q16790
Ki / nM: 292

* * *

Experiment: Cytotoxicity against human MCF-10A assessed as cell viability under hypoxia conditions measured after 72 hrs by MTT assay
Type: toxicity, cell-based
Settings: MCF-10A cells
Some compounds, each annotated with its measured log10(IC50 at 72 h).
quantity.name: log10(IC50 at 72 h) (log10 of the value in µM)

compound: Cc1ccc(CN2C(=O)C(=O)c3cc(S(N)(=O)=O)ccc32)cc1C
log10(IC50 at 72 h): 0.78
--
compound: NS(=O)(=O)c1ccc2c(c1)C(=O)C(=O)N2Cc1ccc(SC(F)(F)F)cc1
log10(IC50 at 72 h): 0.93
--
compound: COc1ccc(CN2C(=O)C(=O)c3cc(S(N)(=O)=O)ccc32)cc1
log10(IC50 at 72 h): 0.51
--
compound: COc1cccc2c1C(=O)c1c(O)c3c(c(O)c1C2=O)C[C@@](O)(C(=O)CO)C[C@@H]3O[C@H]1C[C@H](N)[C@H](O)[C@H](C)O1 [DOXORUBICIN]
log10(IC50 at 72 h): -1.29
--
compound: NS(=O)(=O)c1ccc2c(c1)C(=O)C(=O)N2Cc1ccc(Cl)c(Cl)c1
log10(IC50 at 72 h): 0.86
--
compound: NS(=O)(=O)c1ccc2c(c1)C(=O)C(=O)N2Cc1ccc(Cl)cc1
log10(IC50 at 72 h): 0.79
